Values from paper PMC8154016

Tested on: MCF-7 (breast) cancer cell line
EXPERIMENTAL_PROTOCOL: MTT assay, cell viability, MCF-7
Type: cell-based
EXPERIMENTAL_CONTEXT: Homo sapiens, MCF7, 48 h, read-out: Cell viability (%) MCF-7 (breast), 100 μg/μL concentration of compound, 48 h, MTT, mean ± SD in triplicate
// viability lookup, one value per entry
Numeric answer only, unit % assumed.

Worked cases, viability given:
{"MOLECULE": "Cn1c(=O)c2c(ncn2Cc2nnc(SCC(=O)Nc3ccc(Cl)cc3Cl)n2-c2ccccc2)n(C)c1=O [Compound 11b]", "UNIT": "%", "READOUT_NUMBER": 69.4}
{"MOLECULE": "Cn1c(=O)c2c(ncn2Cc2nnc(SCC(=O)Nc3ccccc3)n2-c2ccccc2)n(C)c1=O [Compound 11a]", "UNIT": "%", "READOUT_NUMBER": 34.7}
{"MOLECULE": "Cn1c(=O)c2c(ncn2CC(=O)O)n(C)c1=O [Acefylline, Theophylline-7-acetic acid, reference compound]", "UNIT": "%", "READOUT_NUMBER": 86.3}
{"MOLECULE": "Cn1c(=O)c2c(ncn2Cc2nnc(SCC(=O)Nc3ccc(Cl)c(Cl)c3)n2-c2ccccc2)n(C)c1=O [Compound 11d]", "UNIT": "%", "READOUT_NUMBER": 38.1}

[in] Recorded viability of Cc1ccc(NC(=O)CSc2nnc(Cn3cnc4c3c(=O)n(C)c(=O)n4C)n2-c2ccccc2)cc1 [Compound 11g] , please.
[out] 31.8

[in] Recorded viability of Cc1ccc(NC(=O)CSc2nnc(Cn3cnc4c3c(=O)n(C)c(=O)n4C)n2-c2ccccc2)c(C)c1 [Compound 11c] , please.
[out] 38.7
